molecular target: Pro-neuregulin-1, membrane-bound isoform (Homo sapiens); assay: NRG1 binders on small-molecule microarrays, primary screen, psychiatric disease protein project, biochemical, small-molecule microarray, fluorescence 635/667 (AID 1075); conditions: NRG1 binding, 635 nm fluorescence, higher = more signal;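 further: score combines 667 nm spot fluorescence with signal to noise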
Some compounds, each annotated with its measured composite z-score.
EXPERIMENTAL ENDPOINT: composite z-score

>>> result("C=CCOC(=O)[C@H]1[C@@H]2C(=O)O[C@@H](c3ccccc3)[C@@H](c3ccccc3)N2[C@@H](c2ccc(OCCOC(=O)[C@H]3C[C@H]4C(=O)N[C@@H](CCCC[N+](C)(C)C)C(=O)N4[C@H]3c3cccc(OCCO)c3)cc2)[C@]12C(=O)Nc1ccc(I)cc12")
0.288
>>> result("Cc1ccc(F)cc1S(=O)(=O)N[C@@H]1CCN(Cc2ccc(OC(C)C)cc2)C1")
-0.136
>>> result("COc1cc(CO)cc(I)c1O[C@H]1C=C(C(=O)NCCO)C[C@@H](N(CC2CCCCC2)C(=O)c2ccc(C(F)(F)F)cc2)[C@@H]1O")
0.115

* * *

experiment: E. coli DRC41 culture turbidity changes, primary screen, E. coli filamentation inducer project, strain DRC41, OD650, 48 h (AID 1152);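 further: E. coli MC1000 strain DRC41 lacking acrAB efflux pump and sulA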; conditions: E. coli DRC41 (acrAB sulA), higher = more signal, called active from +8 up or from −8 down
Quick rule: z-score of at least 0.1 means rule met, below that means rule not met.

>>> class_assignment("COc1cc(OC)c(C(O)C2C=CC3C(=O)N(c4ccccc4)C(=O)C3N2Nc2ccc(C#N)cc2)cc1Br (configuration not stated)")
"rule not met"
>>> class_assignment("CC(C)C(=C=CC[C@H](O)c1ccc(OCCO)cc1)C[C@H](O)c1cc(Cl)cc(Cl)c1O")
"rule not met"
>>> class_assignment("CCCCC(CC)C(O)C1C=CC2C(=O)N(c3ccccc3)C(=O)C2N1Nc1ccc([N+](=O)[O-])cc1 (configuration not stated)")
"rule not met"
>>> class_assignment("CC(C)CNC(=O)[C@@]1(c2ccc([N+](=O)[O-])cc2)CC(=O)N(C2CCCCC2)[C@@H]1c1ccc(CO)cc1I")
"rule not met"
>>> class_assignment("CC(C)(C)N1CC=CC23O[C@@H]4C=CCOC(=O)[C@@H]4[C@H]2C(=O)N(CCCO)[C@@H]3C1=O (some centres not stated)")
"rule met"
>>> class_assignment("Cc1ccc(S[C@]2(C(=O)NC3CC3)CC(=O)N(Cc3ccccc3Cl)[C@@H]2c2ccc(CO)cc2I)cc1")
"rule met"

* * *

Parameter composite z-score: see the listing below.
test: binders of probe aHhip on microarray, primary screen, stem cell growth factor project, biochemical, small-molecule microarray, fluorescence 635/667 (AID 1087); settings: higher = more signal;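 further: score merges spot fluorescence at 667nm with spot signal to noise ratio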
EXPERIMENTAL ENDPOINT: composite z-score

>>> result("COCCOC(=O)N1C(=O)[C@@]2(c3cc(C#CCC(C(=O)OC)C(=O)OC)ccc31)[C@H](c1ccc(OCCO)cc1)N1[C@H](c3ccccc3)[C@H](c3ccccc3)OC(=O)[C@H]1[C@@H]2C(=O)N1CCN(c2ncccn2)CC1")
0.142
>>> result("CC(C)C(O)C1C=CC2C(=O)N(C)C(=O)C2N1N(c1ccccc1)c1ccccc1 (stereo not drawn)")
0.0139
>>> result("CN(C)CCCNC(=O)[C@@]1(C)c2ccccc2C(=O)N(Cc2cc(C(F)(F)F)cc(C(F)(F)F)c2)[C@H]1c1ccc(CO)cc1")
0.192
>>> result("CC(C)CNC(=O)[C@@H]1c2ccccc2C(=O)N(Cc2cc(F)cc(C(F)(F)F)c2)[C@H]1c1ccc(CO)cc1")
-0.0237
>>> result("CO[C@H]1O[C@H](CO)[C@@H](OC(=O)Nc2ccc(C(F)(F)F)cc2)[C@H](OC(=O)Nc2ccc3c(c2)OCO3)[C@H]1OC(=O)Nc1ccc2c(c1)OCO2")
0.176
>>> result("CN1C2C=C(CCCO)C(C3C(=O)N(C(N)=O)C(=O)C32)C1c1cccs1 (stereo not drawn)")
0.303
>>> result("COc1ccc([Si](C)(C)[C@H]2[C@H](CCn3cc([C@H](O)c4ccccc4)nn3)O[C@@]3(C(=O)N(Cc4cccc(N5C(=O)c6cccc7cccc5c67)c4)c4ccccc43)[C@@H]2C)cc1")
-0.0994
>>> result("C=CC[C@]1(C(=O)N(C)C)N=C(c2ccc(OCCCO)cc2)O[C@H]1c1ccccc1N=[N+]=[N-]")
-0.199
>>> result("CC(C)CNC(=O)[C@@]1(c2ccc([N+](=O)[O-])cc2)CC(=O)N(C2CCCCC2)[C@@H]1c1ccc(CO)cc1I")
-0.335
>>> result("CCOC(=O)C[C@H]1[C@H](OC(=O)c2ccc(-c3ccccc3)cc2)[C@@H](NC(=O)C2CCCCC2)c2cc(OCCCO)ccc2N1C(=O)c1ccccc1")
0.103
>>> result("Cc1ccc(S[C@]2(C(=O)NC(C)C)CC(=O)N(C3Cc4ccccc4C3)[C@@H]2c2ccc(CO)cc2I)cc1")
-0.858
>>> result("CCOC(=O)C1=CC[C@@H](c2ccccc2C(F)(F)F)N(S(=O)(=O)c2ccc(C)cc2)C1")
-0.0439
>>> result("NC(=O)NCC#Cc1ccc2c(c1)[C@]1(C(=O)N2)[C@H](C(=O)O)[C@H]2C(=O)O[C@H](c3ccccc3)[C@H](c3ccccc3)N2[C@@H]1c1ccccc1OCCO")
0.291
>>> result("CCOC(=O)[C@H]1C/C=C/C[C@H](C(=O)OCC)C(=O)O[C@H]2[C@@H](OC)O[C@H](CO)[C@@H](OC(=O)CCc3ccccc3)[C@@H]2OC1=O")
-0.169
>>> result("CCOC(=O)C1=CC[C@@H](c2ccccc2)N(S(=O)(=O)c2ccc(C)cc2)C1")
0.0274
>>> result("COc1c(C)cc(-c2cc3c(c(Cc4ccccc4)n2)[Si](C(C)C)(C(C)C)OC3)cc1C")
-0.0994
>>> result("CC(C)(C)OC(=O)CC[C@]1(C(=O)NCCN2CCOCC2)N=C(c2ccc(OCCCO)cc2)O[C@H]1c1ccccc1N=[N+]=[N-]")
0.913
>>> result("O=C1c2ccccc2[C@@]2(Cc3ccccc3N(C3CC3)C2=O)[C@H](c2ccc(CO)cc2)N1C1CCCCC1")
-0.0994
>>> result("COCCOC(=O)N1C(=O)[C@@]2(c3cc(C#Cc4ccc(OC)cc4)ccc31)[C@H](C(=O)N1CCN(c3ncccn3)CC1)[C@H]1C(=O)O[C@H](c3ccccc3)[C@H](c3ccccc3)N1[C@@H]2c1ccccc1OCCO")
-0.0994
>>> result("Cc1ccc(C(C)CC(O)C2C=CC3C(=O)N(c4ccccc4)C(=O)C3N2Nc2ccc(C(C)C)cc2)o1 (stereo not drawn)")
-0.0772
>>> result("Cc1ccc(S[C@]2(C(=O)NCC(F)(F)F)CC(=O)N(Cc3ccccc3)[C@@H]2c2ccc(CO)cc2)cc1")
-0.266
>>> result("COC(=O)C[C@H]1O[C@]2(C(=O)N(C)c3ccccc32)[C@@H](C)[C@@H]1[Si](C)(C)c1ccc(C)cc1")
0.28
>>> result("CC(C)(C)OC(=O)CC[C@]1(C(=O)O)N=C(c2ccc(OCCCO)cc2)O[C@H]1c1ccccc1CN=[N+]=[N-]")
-0.409
>>> result("O=C(O)[C@H](Cc1ccccc1)n1cc(-c2ccccn2)nn1")
-0.0672
>>> result("COc1cc2c(cc1OC)CN(C(=O)[C@H]1[C@@H]3C(=O)O[C@@H](c4ccccc4)[C@@H](c4ccccc4)N3[C@@H](c3ccc(OCCO)cc3)[C@]13C(=O)Nc1ccc(C#CCCO)cc13)CC2")
0.305
>>> result("COc1ccc([Si](C)(C)[C@@H]2[C@@H](CCn3cc([C@H](O)c4ccccc4)nn3)O[C@]3(C(=O)N(Cc4ccc(N5CCOC5=O)cc4)c4ccccc43)[C@H]2C)cc1")
0.0854
>>> result("C=CC[C@@]1(C(=O)N2CCCCC2)N=C(c2ccc(OCCCO)cc2)O[C@@H]1c1ccccc1")
0.595
>>> result("COc1ccc(C(O)C2C=CC3C(=O)N(C)C(=O)C3N2N2CCCCC2)cc1 (stereo not drawn)")
-0.283
